Sourced from patent US9176064B2

target: catalytic subunit of CK2 (CK2α) (Homo sapiens); experiment: Titration of fluorescent probe with CK2α (fluorescence anisotropy); assay type: binding; conditions: fluorescence anisotropy, HEPES pH 7.5, 30° C.; probe X also by time gated luminescence; read-out: KD of probe-CK2α complex
Sequence (P68400 1-335 limits assumed): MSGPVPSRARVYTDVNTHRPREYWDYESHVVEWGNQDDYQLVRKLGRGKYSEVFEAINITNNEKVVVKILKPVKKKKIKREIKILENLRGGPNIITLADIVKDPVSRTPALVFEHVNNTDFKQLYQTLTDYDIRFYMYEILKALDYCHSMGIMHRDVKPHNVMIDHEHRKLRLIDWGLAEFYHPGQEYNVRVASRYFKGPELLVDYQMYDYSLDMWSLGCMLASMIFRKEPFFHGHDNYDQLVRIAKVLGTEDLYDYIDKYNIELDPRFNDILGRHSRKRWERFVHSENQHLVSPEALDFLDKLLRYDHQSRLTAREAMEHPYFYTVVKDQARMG
Where a SMILES comes first, the peptide text is derived from it. [ ]: non-standard residue; d: D form. The star is where a group is joined. X2 = CN(C)c1ccc2c(-c3ccc(C(=O)*)cc3C(=O)[O-])c3ccc(=[N+](C)C)cc-3oc2c1; X1 = O=C(CCCCCCCn1cnc2c(Br)c(Br)c(Br)c(Br)c21)*
recorded_endpoint: pKd
Lab note: report pKd as minus log10 of the concentration in molar units, number only.

compound: CCN1/C(=C/C=C/C=C/C2=[N+](CC)c3ccc(S(=O)(=O)[O-])cc3C2(C)C)C(C)(CCCC(=O)NCCCC[C@H](NC(=O)[C@H](CC(=O)O)NC(=O)[C@H](CC(=O)O)NC(=O)[C@H](CC(=O)O)NC(=O)[C@H](CC(=O)O)NC(=O)[C@H](CC(=O)O)NC(=O)[C@H](CC(=O)O)NC(=O)CCCCCCCCOc2nc3cc(C(=O)O)ccc3c3cnccc23)C(=O)O)c2cc(S(=O)(=O)O)ccc21 (stereo partly shown)
recorded_endpoint: pKd
assay_result: 10.70

compound: CN(C)c1ccc2c(-c3ccc(C(=O)NCCCC[C@H](NC(=O)[C@H](CC(=O)O)NC(=O)[C@H](CC(=O)O)NC(=O)[C@H](CC(=O)O)NC(=O)[C@H](CC(=O)O)NC(=O)[C@H](CC(=O)O)NC(=O)[C@@H](CC(=O)O)NC(=O)CCCCCCCn4cnc5c(Br)c(Br)c(Br)c(Br)c54)C(=O)O)cc3C(=O)[O-])c3ccc(=[N+](C)C)cc-3oc2c1 [probe VII] (X1-[dD]DDDDDK(X2)-OH)
recorded_endpoint: pKd
assay_result: 9.40

compound: CCN1/C(=C/C=C/C=C/C2=[N+](CC)c3ccc(S(=O)(=O)[O-])cc3C2(C)C)C(C)(CCCC(=O)NCCCC[C@H](NC(=O)[C@H](CC(=O)O)NC(=O)[C@H](CC(=O)O)NC(=O)[C@H](CC(=O)O)NC(=O)[C@H](CC(=O)O)NC(=O)[C@H](CC(=O)O)NC(=O)[C@@H](CC(=O)O)NC(=O)CCCCCCCn2cnc3c(I)c(I)c(I)c(I)c32)C(=O)O)c2cc(S(=O)(=O)O)ccc21 (stereo partly shown)
recorded_endpoint: pKd
assay_result: 9.40

Read the next record carefully.
Task: Bench note: what pKd did CCN1/C(=C/C=C/C=C/C2=[N+](CC)c3ccc(S(=O)(=O)[O-])cc3C2(C)C)C(C)(CCCC(=O)NCCCC[C@H](NC(=O)[C@H](CC(=O)O)NC(=O)[C@H](CC(=O)O)NC(=O)[C@H](CC(=O)O)NC(=O)[C@H](CC(=O)O)NC(=O)[C@H](CC(=O)O)NC(=O)[C@@H](CC(=O)O)NC(=O)CCCCCCCn2cnc3c(Br)c(Br)c(Br)c(Br)c32)C(=O)O)c2cc(S(=O)(=O)O)ccc21 (stereo partly shown) show?
Result: 9.40
